Provenance of the data: paper PMC3834327

# assayed target: UniProt O35820
# experiment notes: Isothermal titration calorimetry with rat DNPH1
# condition label: ITC, T = 298 K, pH 6.0, rat DNPH1
Please use met whenever ∆H is not below -20 kcal/mol, and not met whenever it is.

O=P(O)(O)OC[C@H]1O[C@@H](n2cnc3c(NC4CCCC4)ncnc32)[C@H](O)[C@@H]1O [Compound 7]: met
CC(C)=CCNc1ncnc2c1ncn2[C@@H]1O[C@H](COP(=O)(O)O)[C@@H](O)[C@H]1O [Compound 1]: met
O=P(O)(O)OC[C@H]1O[C@@H](n2cnc3c(NCc4ccco4)ncnc32)[C@H](O)[C@@H]1O [Compound 5, kinetin riboside 5’-monophosphate]: not met

Moving on to another compound below.
Input line: Please check the record O=C(O)CCCNc1ncnc2c1ncn2[C@@H]1O[C@H](COP(=O)(O)O)[C@@H](O)[C@H]1O [Compound 14] and state if its ∆H is at or above -20 kcal/mol.
Output line: met

---

kcat for assorted compounds
# assayed target: human DNPH1 (Homo sapiens)
# experiment notes: Kinetic parameters of human DNPH1 with 2'-deoxynucleoside 5'-monophosphates as substrates
# Format: biochemical
# Design: made in house; host or cells: E. coli Bli5
# condition label: substrate of human DNPH1

The following compounds have reported results that may help.
Nc1ccn([C@H]2C[C@H](O)[C@@H](COP(=O)(O)O)O2)c(=O)n1 [dCMP]: 8.3 ± 0.4 10^-3 s^-1
Nc1nc2c(ncn2[C@H]2C[C@H](O)[C@@H](COP(=O)(O)O)O2)c(=O)[nH]1 [dGMP, 2’-Deoxyguanosine 5’-monophosphate]: 0.002 s⁻¹
Cc1cn([C@H]2C[C@H](O)[C@@H](COP(=O)(O)O)O2)c(=O)[nH]c1=O [dTMP]: 25 ± 2 10^-3 s^-1
O=c1[nH]cnc2c1ncn2[C@H]1C[C@H](O)[C@@H](COP(=O)(O)O)O1 [dIMP]: 1.6 ± 0.1 10^-3 s^-1
O=c1ccn([C@H]2C[C@H](O)[C@@H](COP(=O)(O)O)O2)c(=O)[nH]1 [dUMP]: 200 ± 20 10^-3 s^-1

Now take the following compound into account.
Input line: // fetch human DNPH1 (Homo sapiens) kcat for Nc1ncnc2c1ncn2[C@H]1C[C@H](O)[C@@H](COP(=O)(O)O)O1 [dAMP]
Output line: 2.5 ± 0.8 10^-3 s^-1

---

pKd for assorted compounds
Sequence of the target: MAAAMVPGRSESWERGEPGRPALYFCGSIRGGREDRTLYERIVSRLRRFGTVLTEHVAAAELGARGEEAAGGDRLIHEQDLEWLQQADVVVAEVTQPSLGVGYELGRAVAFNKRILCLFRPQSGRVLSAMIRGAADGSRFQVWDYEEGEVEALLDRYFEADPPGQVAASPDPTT
API: returns pKd as number; meaning -log10 of concentration in mol/L.

O=C(O)CCCNc1ncnc2c1ncn2[C@@H]1O[C@H](COP(=O)(O)O)[C@@H](O)[C@H]1O [Compound 14]: 5.26

Now take the following compound into account.
Input line: Given O=P(O)(O)OC[C@H]1O[C@@H](n2cnc3c(NCc4ccco4)ncnc32)[C@H](O)[C@@H]1O [Compound 5, kinetin riboside 5’-monophosphate] , state its recorded pKd.
Output line: 5.85

---

# assayed target: rat DNPH1 (Rattus norvegicus, UniProt O35820)
# Sequence (O35820 1-163): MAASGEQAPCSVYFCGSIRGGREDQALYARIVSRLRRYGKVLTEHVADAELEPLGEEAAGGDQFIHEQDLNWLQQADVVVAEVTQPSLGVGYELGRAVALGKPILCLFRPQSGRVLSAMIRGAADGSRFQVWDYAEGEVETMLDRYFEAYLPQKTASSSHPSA
# experiment notes: Isothermal titration calorimetry with rat DNPH1
# condition label: ITC, T = 298 K, pH 6.0, rat DNPH1
∆G for assorted compounds
Kindly answer with a numeric value in kcal/mol, unit omitted.

Input line: // fetch rat DNPH1 (Rattus norvegicus, UniProt O35820) ∆G for O=P(O)(O)OC[C@H]1O[C@@H](n2cnc3c(NCc4ccco4)ncnc32)[C@H](O)[C@@H]1O [Compound 5, kinetin riboside 5’-monophosphate]
Output line: -8.3

Input line: Can you check O=P(O)(O)OC[C@H]1O[C@@H](n2cnc3c(NC4CCCC4)ncnc32)[C@H](O)[C@@H]1O next?
Output line: -8.5

Input line: Can you check CC(C)=CCNc1ncnc2c1ncn2[C@@H]1O[C@H](COP(=O)(O)O)[C@@H](O)[C@H]1O next?
Output line: -7.6

Input line: Can you check O=C(O)CCCNc1ncnc2c1ncn2[C@@H]1O[C@H](COP(=O)(O)O)[C@@H](O)[C@H]1O next?
Output line: -6.9

Input line: Can you check O=P(O)(O)OC[C@H]1O[C@@H](n2cnc3c(NC4CCCCC4)ncnc32)[C@H](O)[C@@H]1O next?
Output line: -8.7

---

# assayed target: rat DNPH1 (Rattus norvegicus, UniProt O35820)
# experiment notes: Isothermal titration calorimetry with rat DNPH1
# condition label: ITC, T = 298 K, pH 6.0, rat DNPH1
endpoint: -T∆S (kcal/mol)
Kindly answer with a numeric value in kcal/mol, unit omitted.

CC(C)=CCNc1ncnc2c1ncn2[C@@H]1O[C@H](COP(=O)(O)O)[C@@H](O)[C@H]1O [Compound 1]: 8.3
O=P(O)(O)OC[C@H]1O[C@@H](n2cnc3c(NC4CCCCC4)ncnc32)[C@H](O)[C@@H]1O [Compound 8]: 11.2
O=P(O)(O)OC[C@H]1O[C@@H](n2cnc3c(NC4CCCC4)ncnc32)[C@H](O)[C@@H]1O [Compound 7]: 2.3
O=C(O)CCCNc1ncnc2c1ncn2[C@@H]1O[C@H](COP(=O)(O)O)[C@@H](O)[C@H]1O [Compound 14]: 5.5

Input line: Given O=P(O)(O)OC[C@H]1O[C@@H](n2cnc3c(NCc4ccco4)ncnc32)[C@H](O)[C@@H]1O [Compound 5, kinetin riboside 5’-monophosphate] , state its recorded -T∆S.
Output line: 17.4

---

∆H for assorted compounds
# assayed target: human DNPH1 (Homo sapiens, UniProt O43598)
# experiment notes: Isothermal titration calorimetry with human DNPH1
# condition label: ITC, T = 298 K, pH 6.0, human DNPH1
Kindly answer with a numeric value in kcal/mol, unit omitted.

The following compounds have reported results that may help.
CC(C)=CCNc1ncnc2c1ncn2[C@@H]1O[C@H](COP(=O)(O)O)[C@@H](O)[C@H]1O: -10.2
O=C(O)CCCNc1ncnc2c1ncn2[C@@H]1O[C@H](COP(=O)(O)O)[C@@H](O)[C@H]1O: -9.8
O=P(O)(O)OC[C@H]1O[C@@H](n2cnc3c(NCc4ccco4)ncnc32)[C@H](O)[C@@H]1O [Compound 5, kinetin riboside 5’-monophosphate]: -20.1

Now take the following compound into account.
Input line: // fetch human DNPH1 (Homo sapiens, UniProt O43598) ∆H for O=P(O)(O)OC[C@H]1O[C@@H](n2cnc3c(NC4CCCC4)ncnc32)[C@H](O)[C@@H]1O
Output line: -6.1

---

# assayed target: rat DNPH1 (Rattus norvegicus)
# Sequence (O35820 1-163): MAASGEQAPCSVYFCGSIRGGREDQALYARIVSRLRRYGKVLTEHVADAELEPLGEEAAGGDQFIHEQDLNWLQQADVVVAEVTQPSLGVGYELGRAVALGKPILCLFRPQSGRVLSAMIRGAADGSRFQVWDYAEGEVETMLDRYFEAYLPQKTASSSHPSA
pKi: −log10 of the molar value.
Please use 1 whenever pKi is not below 5, and -1 whenever it is.

O=P(O)(O)OC[C@H]1O[C@@H](n2cnc3c(NCc4ccco4)ncnc32)[C@H](O)[C@@H]1O [Compound 5, kinetin riboside 5’-monophosphate]: 1

Input line: Please check the record C/C(=C\CNc1ncnc2c1ncn2[C@@H]1O[C@H](COP(=O)(O)O)[C@@H](O)[C@H]1O)CO [Compound 2, trans-zeatin riboside 5’-monophosphate] and state if its pKi is at or above 5.
Output line: -1

Input line: Can you check C/C(=C/CNc1ncnc2c1ncn2[C@@H]1O[C@H](COP(=O)(O)O)[C@@H](O)[C@H]1O)CO [Compound 3, cis-zeatin riboside 5’-monophosphate] next?
Output line: 1

Input line: Can you check CC(C)=CCNc1ncnc2c1ncn2[C@@H]1O[C@H](COP(=O)(O)O)[C@@H](O)[C@H]1O [Compound 1] next?
Output line: 1

---

# assayed target: human DNPH1 (Homo sapiens, UniProt O43598)
# Sequence (O43598 1-174): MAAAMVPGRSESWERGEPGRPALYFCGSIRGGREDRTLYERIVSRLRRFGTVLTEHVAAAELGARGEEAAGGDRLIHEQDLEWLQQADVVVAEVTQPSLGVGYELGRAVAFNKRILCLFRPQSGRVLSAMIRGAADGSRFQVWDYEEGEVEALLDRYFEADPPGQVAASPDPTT
# experiment notes: Isothermal titration calorimetry with human DNPH1
# condition label: ITC, T = 298 K, pH 6.0, human DNPH1
endpoint: ∆S (cal.K^-1.mol^-1)
Kindly answer with a numeric value in cal.K^-1.mol^-1, unit omitted.

O=C(O)CCCNc1ncnc2c1ncn2[C@@H]1O[C@H](COP(=O)(O)O)[C@@H](O)[C@H]1O [Compound 14]: -8.8
CC(C)=CCNc1ncnc2c1ncn2[C@@H]1O[C@H](COP(=O)(O)O)[C@@H](O)[C@H]1O [Compound 1]: -8.2
O=P(O)(O)OC[C@H]1O[C@@H](n2cnc3c(NCc4ccco4)ncnc32)[C@H](O)[C@@H]1O [Compound 5, kinetin riboside 5’-monophosphate]: -42.4

Now take the following molecule into account.
Input line: Given O=P(O)(O)OC[C@H]1O[C@@H](n2cnc3c(NC4CCCC4)ncnc32)[C@H](O)[C@@H]1O [Compound 7] , state its recorded ∆S.
Output line: 6.2
